test system: HT-1080; experiment: Modulatory profiling: Alamar Blue viability, lethal compound cotreated with death modulator (EC50, AUC); type: cell-based; conditions: HT-1080, modulator LNAME

| molecule | AUC HT.LNAME |
| --- | --- |
| CC(/C=C/C(=O)NO)=C\[C@@H](C)C(=O)c1ccc(N(C)C)cc1 [TrichostatinA] | 0.003502 |
| C=C(C)[C@H]1Cc2c(ccc3c2O[C@@H]2COc4cc(OC)c(OC)cc4[C@@H]2C3=O)O1 [Rotenone] | −0.007377 |
| O=c1c(N2CCCC2)c(Cl)cnn1-c1ccccc1 [CIL20] | 0.01703 |
| COc1cc([C@@H]2c3cc4c(cc3[C@@H](O[C@@H]3O[C@@H]5CO[C@@H](C)O[C@H]5[C@H](O)[C@H]3O)[C@H]3COC(=O)[C@H]23)OCO4)cc(OC)c1O [Etoposide] | 0.005444 |
| Cc1ccc(O)c(/N=C/C=C/c2cccc(Br)c2)c1 [CIL27] | 0.001204 |
| COC(=O)c1ccc([C@@H]2c3[nH]c4ccccc4c3C[C@@H](C(=O)OC)N2C(=O)CCl)cc1 [RSL3, reference compound] | −0.01081 |
| O=C1c2ccccc2-c2onc3ccc(Oc4ccccc4)c1c23 [CIL6] | 0.0157 |
| O=C(CCl)N(c1ccccc1)c1c[nH]c2ccccc12 [CIL69] | −0.04538 |
| CC1=CC(C)(C)Nc2ccc(OC(=O)c3ccco3)cc21 [CIL2] | 0.02625 |
| COc1cc2c(c(OC)c1OC)-c1ccc(OC)c(=O)cc1[C@@H](NC(C)=O)CC2 [Colchicine] | 0.008236 |
| O=S(=O)(c1ccc2c(c1)C(=NO)c1cc(S(=O)(=O)N3CCCCC3)ccc1-2)N1CCCCC1 [CIL56] | 0.05375 |
| COC(=O)c1[nH]c2ccc(Br)cc2c1NC(=O)CN1CCN(C2CCCCC2)CC1 [CIL71] | 0.02366 |
| CN(C)CC(O)Cn1c2ccc(Cl)cc2c2cc(Cl)ccc21 (centres unmarked) [CIL5] | 0.02263 |
| CC[C@]1(O)C[C@@H]2CN(CCc3c([nH]c4ccccc34)[C@@](C(=O)OC)(c3cc4c(cc3OC)N(C)[C@H]3[C@@](O)(C(=O)OC)[C@H](OC(C)=O)[C@]5(CC)C=CCN6CC[C@]43[C@@H]65)C2)C1 [Vinbiastine] | −0.01231 |
| OCCNCC(O)Cn1c2ccc(Br)cc2c2cc(Br)ccc21 (centres unmarked) [CIL7] | 0.01998 |
| CCCS(=O)(=O)c1nnnn1-c1cccc(OC)c1 [CIL15] | 0.001309 |
| Cc1cccc(Cn2ncc(Cl)c(Cl)c2=O)c1 [CIL60] | 0.004397 |

* * *

tested on: HT-1080; experiment: Modulatory profiling: Alamar Blue viability, lethal compound cotreated with death modulator (EC50, AUC); assay type: cell-based; conditions: HT-1080, modulator Gd3+
Property: AUC HT.Gd3+; scope: individual compounds

| compound | target_of_assay | AUC HT.Gd3+ |
| --- | --- | --- |
| O=C(CCl)N(c1ccccc1)c1c[nH]c2ccccc12 [CIL69] | HT-1080 | −0.01446 |
| C/C(=N\Nc1ncc(Cl)cc1Cl)c1ccccn1 [CIL64] | HT-1080 | −0.0263 |
| Cc1cccc(Cn2ncc(Cl)c(Cl)c2=O)c1 [CIL60] | HT-1080 | −0.0163 |
| O=P(Oc1ccccc1)(Oc1ccccc1)O[C@@H]1C=CS(=O)(=O)C1 [CIL44] | HT-1080 | −0.01147 |
| Nc1ccccc1NC(=O)c1ccc(CNC(=O)OCc2cccnc2)cc1 [MS275] | HT-1080 | −0.01027 |
| CN(C)CCCOS(=O)(=O)c1ccc(N2CCC(c3ccc(Cl)cc3)=N2)cc1 [CIL40] | HT-1080 | −0.0186 |
| CC1=CC(C)(C)Nc2ccc(OC(=O)c3cccnc3)cc21 [CIL47] | HT-1080 | −0.02263 |
| C=C(C)[C@H]1Cc2c(ccc3c2O[C@@H]2COc4cc(OC)c(OC)cc4[C@@H]2C3=O)O1 [Rotenone] | HT-1080 | 0.01051 |
| COc1ccc(N(C(=O)CCl)C(C(=O)NCCc2ccccc2)c2cccs2)cc1 (stereo not shown) [DPI4] | HT-1080 | −0.02121 |
| C[S+]([O-])c1nc(-c2ccc(Br)cc2)cc(-c2ccccc2)c1C#N (stereo not shown) [CIL17] | HT-1080 | −0.04318 |

* * *

system: BJeLR; experiment: Modulatory profiling: Alamar Blue viability, lethal compound cotreated with death modulator (EC50, AUC); format: cell-based, human; parameters: unit not given beside the values; settings: BJeLR cells; lethal compound cotreated with modulator ALLN; modulatory profile value (AUC)
AUC, modulator BJ.ALLN class ranges: low end = under -0.06, middle = from -0.06 up to 0.01, high end = 0.01 and over

| compound | target_of_assay | label |
| --- | --- | --- |
| COc1c2c(cc3c1C(CC(=O)/C=C/c1ccccc1)[N+](C)(C)CC3)OCO2 (centres unmarked) | BJeLR | high end |
| CC(C)C1CC(CCNCc2ccc3c(c2)OCO3)(c2ccccc2)CCO1 (centres unmarked) | BJeLR | low end |
| CCC(C(NNC(=O)c1ccc(C(F)(F)F)cc1)c1ccc(C(F)(F)F)cc1)[N+](=O)O (centres unmarked) | BJeLR | low end |
| C/C(=N\Nc1ncc(Cl)cc1Cl)c1ccccn1 | BJeLR | high end |
| C(=N\Nc1nc2ccccc2s1)/c1ccccn1 | BJeLR | high end |
| COc1ccc(N(C(=O)CCl)C(C(=O)NCCc2ccccc2)c2cccs2)cc1 (centres unmarked) | BJeLR | low end |
| Cc1cccc(-n2ncc(Cl)c(Cl)c2=O)c1 | BJeLR | middle |
| CC(C)(C)C1CCc2c(sc(NC(=O)CN3CCNCC3)c2C(N)=O)C1 (centres unmarked) | BJeLR | middle |
| N/C(=N\OC(=O)C12CC3CC(CC(C3)C1)C2)c1ccccc1 | BJeLR | low end |
| O=C(CCl)N(c1ccccc1)c1c[nH]c2ccccc12 | BJeLR | middle |
| CS[C@H]1SC[C@H]2C(=O)N(C)[C@@H](C(C)C)C(=O)OC[C@@H](NC(=O)c3cnc4ccccc4n3)C(=O)N[C@@H](C)C(=O)N(C)[C@@H]1C(=O)N(C)[C@@H](C(C)C)C(=O)OC[C@@H](NC(=O)c1cnc3ccccc3n1)C(=O)N[C@@H](C)C(=O)N2C | BJeLR | high end |
| COc1cc([C@@H]2c3cc4c(cc3[C@H](O)[C@H]3COC(=O)[C@H]23)OCO4)cc(OC)c1OC | BJeLR | middle |
| CC[C@]1(O)C[C@@H]2CN(CCc3c([nH]c4ccccc34)[C@@](C(=O)OC)(c3cc4c(cc3OC)N(C)[C@H]3[C@@](O)(C(=O)OC)[C@H](OC(C)=O)[C@]5(CC)C=CCN6CC[C@]43[C@@H]65)C2)C1 | BJeLR | low end |
| COC(=O)c1[nH]c2ccc(Br)cc2c1NC(=O)CN1CCN(C2CCCCC2)CC1 | BJeLR | middle |
| CCOC(=O)[C@@H]1[C@@H](c2ccccc2)C(=O)CCN1NC(=O)c1ccccc1 | BJeLR | low end |
| O=C1C(Cl)=C(N2CCOCC2)C(=O)C(Cl)=C1N1CCOCC1 | BJeLR | high end |
| COc1ccc(-n2nnnc2S(=O)(=O)CC(=O)N2CCCCC2)cc1 | BJeLR | low end |
| CCCCNc1cc(C)nc(NCc2ccccc2)n1 | BJeLR | middle |
| COc1ccccc1/C=C/C1(C(=O)NC2CCCC2)CC(=O)N1c1ccc(F)cc1 (centres unmarked) | BJeLR | middle |
| COc1cc([C@@H]2c3cc4c(cc3[C@@H](O[C@@H]3O[C@@H]5CO[C@@H](C)O[C@H]5[C@H](O)[C@H]3O)[C@H]3COC(=O)[C@H]23)OCO4)cc(OC)c1O [Etoposide] | BJeLR | high end |
| CC1=CC(C)(C)Nc2ccc(OC(=O)c3cccnc3)cc21 | BJeLR | middle |
| COC(=O)c1ccc([C@@H]2c3[nH]c4ccccc4c3C[C@@H](C(=O)OC)N2C(=O)CCl)cc1 [RSL3, reference compound] | BJeLR | high end |
| COc1cccc(-n2nnnc2S(C)(=O)=O)c1 | BJeLR | middle |
| CC(/C=C/C(=O)NO)=C\[C@@H](C)C(=O)c1ccc(N(C)C)cc1 | BJeLR | low end |
| O=S(=O)(c1ccc2c(c1)C(=NO)c1cc(S(=O)(=O)N3CCCCC3)ccc1-2)N1CCCCC1 | BJeLR | high end |
| C=C(C)[C@H]1Cc2c(ccc3c2O[C@@H]2COc4cc(OC)c(OC)cc4[C@@H]2C3=O)O1 | BJeLR | middle |
| O=c1c(Cl)c(Cl)cnn1-c1ccc(Cl)c(C(F)(F)F)c1 | BJeLR | low end |
| O=c1c(Cl)c(Cl)cnn1-c1ccc(Cl)cc1 | BJeLR | high end |
| O=C(Oc1ccc(Cl)c2cccnc12)c1ccco1 | BJeLR | high end |
| CCc1ccc(/C=C2/SC(=O)N(CCC(C)NCCCN3CCOCC3)C2=O)cc1 (centres unmarked) | BJeLR | middle |
| CC(C)[C@@H]1NC(=O)[C@H](C)OC(=O)[C@@H](C(C)C)NC(=O)[C@@H](C(C)C)OC(=O)[C@H](C(C)C)NC(=O)[C@H](C)OC(=O)[C@@H](C(C)C)NC(=O)[C@@H](C(C)C)OC(=O)[C@H](C(C)C)NC(=O)[C@H](C)OC(=O)[C@@H](C(C)C)NC(=O)[C@@H](C(C)C)OC1=O | BJeLR | high end |
